molecules and their reported pEC50
# Test Target: Recombinant human TLR7 (Homo sapiens)
# Construct: TLR7 in vector pUNO, blasticidin selection
# Sequence (Q9NYK1 27-1049): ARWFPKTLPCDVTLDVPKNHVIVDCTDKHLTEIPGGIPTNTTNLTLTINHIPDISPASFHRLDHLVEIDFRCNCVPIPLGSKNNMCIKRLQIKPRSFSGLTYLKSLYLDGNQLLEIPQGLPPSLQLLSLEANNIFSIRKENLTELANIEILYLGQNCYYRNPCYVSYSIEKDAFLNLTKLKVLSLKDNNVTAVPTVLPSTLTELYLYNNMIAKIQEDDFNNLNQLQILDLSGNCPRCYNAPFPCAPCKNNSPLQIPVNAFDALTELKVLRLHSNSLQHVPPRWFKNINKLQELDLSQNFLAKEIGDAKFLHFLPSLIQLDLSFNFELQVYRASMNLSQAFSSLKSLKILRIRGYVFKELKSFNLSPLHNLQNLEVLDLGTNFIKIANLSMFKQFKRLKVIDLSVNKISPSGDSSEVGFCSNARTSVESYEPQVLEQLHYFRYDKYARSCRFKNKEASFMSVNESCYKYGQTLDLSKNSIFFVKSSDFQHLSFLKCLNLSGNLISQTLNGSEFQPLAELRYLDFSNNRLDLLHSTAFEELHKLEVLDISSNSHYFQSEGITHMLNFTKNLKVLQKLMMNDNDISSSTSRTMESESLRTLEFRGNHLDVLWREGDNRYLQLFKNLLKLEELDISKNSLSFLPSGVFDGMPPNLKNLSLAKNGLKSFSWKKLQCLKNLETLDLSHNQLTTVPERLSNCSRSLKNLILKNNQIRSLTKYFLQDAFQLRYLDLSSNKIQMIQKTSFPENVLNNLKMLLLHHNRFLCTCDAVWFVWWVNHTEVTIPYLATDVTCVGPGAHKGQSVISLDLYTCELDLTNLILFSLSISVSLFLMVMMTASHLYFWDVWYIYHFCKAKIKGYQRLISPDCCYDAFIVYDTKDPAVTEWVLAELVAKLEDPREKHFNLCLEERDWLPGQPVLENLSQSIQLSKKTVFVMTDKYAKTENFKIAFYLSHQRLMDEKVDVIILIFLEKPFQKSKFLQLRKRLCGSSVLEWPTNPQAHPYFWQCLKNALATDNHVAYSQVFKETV
# Protocol Description: Human TLR7 Assay (SEAP reporter);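 further: SEAP driven by an NFkB-responsive composite promoter, pEC50 read at half of each compound's own maximal SEAP induction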
# Measurement Context: HEK293 cell line stably expressing human TLR7 and pNiFty2-SEAP reporter; SEAP induction after overnight incubation at 37° C., 0.1% (v/v) DMSO
pEC50: −log10 of the molar value.
Reported Metric: pEC50

> print(dat)
                                   molecule  reported.metric  assay.value
1  CCCC[C@@H](CO)Nc1nc(N)nc(C)c1Cc1ccc(CC(=O)OC)cc1 [Example 44]            pEC50         6.20
2  CCCCCNc1nc(N)nc(C)c1Cc1cc(CC(=O)OC)ccc1O [Example 39]            pEC50         7.00
3  CCCCNc1nc(N)nc(C)c1Cc1ccc(CC(=O)OCCCO)cc1OC [Example 93]            pEC50         7.70
4  CCCCCNc1nc(N)nc(C)c1Cc1ccc(CC(=O)OC)cc1F [Example 22]            pEC50         6.20
5  CCCCCNc1nc(N)nc(C)c1CCCN(Cc1ccc(CC(=O)OC)cc1)C(=O)CSC [Example 52]            pEC50         6.20
